Target: aurora A kinase (AURKA) (Homo sapiens, UniProt O14965)
Construct: purchased BPS Bioscience (assay run externally by the vendor)
Assay: ADP-Glo kinase assay, Aurora A
Assay type: biochemical
Conditions: Log[nM] 1.0; Set2
measurement-kind: Aurora A % Activity Set2 (%)

FC(F)(F)c1cccc(Nc2ncnc3[nH]ccc23)c1 = 101
Clc1ccccc1Nc1ncnc2[nH]ccc12 = 97
Brc1cccc(Nc2ncnc3[nH]ccc23)c1 = 97
Clc1ccc(Nc2ncnc3[nH]ccc23)cc1 = 98
c1ccc(Oc2ccc(Nc3ncnc4[nH]ccc34)cc2)cc1 = 97
Clc1ccc(Nc2ncnc3[nH]ccc23)cc1Cl = 95
Brc1ccc(Nc2ncnc3[nH]ccc23)cc1 = 94
Clc1ccc(Nc2ncnc3[nH]ccc23)cc1Br = 103
Cc1ccccc1Nc1ncnc2[nH]ccc12 = 103
c1ccc(Cc2ccc(Nc3ncnc4[nH]ccc34)cc2)cc1 = 93
Nc1nc(Nc2cccc(Br)c2)c2cc[nH]c2n1 = 101
COc1ccc(Nc2ncnc3[nH]ccc23)cc1 = 89
CN[C@@H]1C[C@H]2O[C@@](C)([C@@H]1OC)n1c3ccccc3c3c4c(c5c6ccccc6n2c5c31)C(=O)NC4 [Staurosporine, staurosporine, reference compound] = 101
c1ccc(Nc2ncnc3[nH]ccc23)cc1 = 90
Cc1cccc(Nc2ncnc3[nH]ccc23)c1 = 102
Cc1ccc(Nc2ncnc3[nH]ccc23)cc1 = 103
Clc1cccc(Nc2ncnc3[nH]ccc23)c1 = 95
Fc1cc(Nc2ncnc3[nH]ccc23)ccc1Cl = 96

---

Molecular target: EGFR (Homo sapiens, UniProt P00533)
Sequence (P00533 25-1210): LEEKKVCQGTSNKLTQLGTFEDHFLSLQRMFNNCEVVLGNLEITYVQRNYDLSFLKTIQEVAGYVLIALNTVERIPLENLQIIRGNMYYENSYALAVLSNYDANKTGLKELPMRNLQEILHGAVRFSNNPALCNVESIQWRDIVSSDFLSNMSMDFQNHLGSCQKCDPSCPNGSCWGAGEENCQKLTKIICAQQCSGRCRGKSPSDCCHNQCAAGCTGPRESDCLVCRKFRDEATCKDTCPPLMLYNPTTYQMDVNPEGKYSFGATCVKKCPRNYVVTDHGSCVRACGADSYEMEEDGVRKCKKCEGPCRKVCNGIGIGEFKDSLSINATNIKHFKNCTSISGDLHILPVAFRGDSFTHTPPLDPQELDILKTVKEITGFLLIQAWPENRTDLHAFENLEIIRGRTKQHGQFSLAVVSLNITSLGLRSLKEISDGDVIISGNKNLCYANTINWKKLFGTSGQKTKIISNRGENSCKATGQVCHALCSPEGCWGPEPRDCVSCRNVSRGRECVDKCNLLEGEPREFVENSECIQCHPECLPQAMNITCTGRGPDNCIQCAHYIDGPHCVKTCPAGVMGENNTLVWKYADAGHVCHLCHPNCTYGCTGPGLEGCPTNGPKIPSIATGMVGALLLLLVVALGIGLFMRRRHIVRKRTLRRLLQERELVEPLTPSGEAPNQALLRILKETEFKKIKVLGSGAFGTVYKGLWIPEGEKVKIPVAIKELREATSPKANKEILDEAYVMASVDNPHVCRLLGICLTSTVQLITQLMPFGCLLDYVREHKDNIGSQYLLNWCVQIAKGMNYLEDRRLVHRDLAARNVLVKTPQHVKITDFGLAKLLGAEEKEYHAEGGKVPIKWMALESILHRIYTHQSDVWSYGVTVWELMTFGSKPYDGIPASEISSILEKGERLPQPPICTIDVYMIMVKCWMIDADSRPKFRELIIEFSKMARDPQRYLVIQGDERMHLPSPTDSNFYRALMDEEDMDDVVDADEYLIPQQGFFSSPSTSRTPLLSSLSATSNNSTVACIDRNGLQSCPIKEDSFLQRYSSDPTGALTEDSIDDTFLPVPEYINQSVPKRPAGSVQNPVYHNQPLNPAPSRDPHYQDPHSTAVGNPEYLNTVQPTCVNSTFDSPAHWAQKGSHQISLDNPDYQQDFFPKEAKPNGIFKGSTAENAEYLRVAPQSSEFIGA
Assay: ADP-Glo kinase assay, EGFR
Type: biochemical
Design: purchased BPS Bioscience (assay run externally by the vendor)
Conditions: Log[nM] 3.0; Set3
measurement-kind: EGFR % Activity Set3 (%)

Cc1ccccc1Nc1ncnc2[nH]ccc12 = 52
FC(F)(F)c1cccc(Nc2ncnc3[nH]ccc23)c1 = 6
c1ccc(Oc2ccc(Nc3ncnc4[nH]ccc34)cc2)cc1 = 12
Brc1cccc(Nc2ncnc3[nH]ccc23)c1 = 1

(I) Brc1ccc(Nc2ncnc3[nH]ccc23)cc1
(II) Cc1ccc(Nc2ncnc3[nH]ccc23)cc1
Incoming: Between I and II , whose measured EGFR % Activity Set3 reads higher? # respond with the chosen item's label
Outgoing: II

---

Biological target: EGFR (Homo sapiens)
Assay: ADP-Glo kinase assay, EGFR
Format: biochemical
Set-up: purchased BPS Bioscience (assay run externally by the vendor)
Details: Log[nM] 5.0; Set2
measurement-kind: EGFR % Activity Set2 (%)

Fc1cc(Nc2ncnc3[nH]ccc23)ccc1Cl [Compound 3] = 0

(1) Cc1ccccc1Nc1ncnc2[nH]ccc12 [Compound 15]
(2) c1ccc(Nc2ncnc3[nH]ccc23)cc1 [Compound 1]
(3) Brc1cccc(Nc2ncnc3[nH]ccc23)c1 [Compound 2]
Incoming: Rank descending by EGFR % Activity Set2. Please respond by ranking the labels in the order requested.
Outgoing: 1, 2, 3

(P) c1ccc(Cc2ccc(Nc3ncnc4[nH]ccc34)cc2)cc1 [Compound 18]
(Q) Brc1ccc(Nc2ncnc3[nH]ccc23)cc1 [Compound 10]
Incoming: Which entry shows the lesser value of EGFR % Activity Set2 here, P or Q ? # respond with the chosen item's label
Outgoing: Q

---

Target: EGFR (Homo sapiens)
Test: ADP-Glo kinase assay, EGFR
Format: biochemical
Parameters: purchased BPS Bioscience (assay run externally by the vendor)
Settings: Log[nM] 0; Set1
measurement-kind: EGFR % Activity Set1 (%)

Recorded results for 4 compounds are shown here.
Clc1ccc(Nc2ncnc3[nH]ccc23)cc1 [Compound 4] = 102
Cc1ccc(Nc2ncnc3[nH]ccc23)cc1 [Compound 9] = 103
Fc1cc(Nc2ncnc3[nH]ccc23)ccc1Cl [Compound 3] = 57
c1ccc(Cc2ccc(Nc3ncnc4[nH]ccc34)cc2)cc1 [Compound 18] = 96

(I) Cc1ccccc1Nc1ncnc2[nH]ccc12 [Compound 15]
(II) Clc1cccc(Nc2ncnc3[nH]ccc23)c1 [Compound 11]
(III) Brc1cccc(Nc2ncnc3[nH]ccc23)c1 [Compound 2]
Incoming: Rank descending by EGFR % Activity Set1. Please respond by ranking the labels in the order requested.
Outgoing: I, II, III
(I: 97%, II: 66%, III: 43%)

---

Molecular target: aurora A kinase (AURKA) (Homo sapiens)
Construct: purchased BPS Bioscience (assay run externally by the vendor)
Sequence (O14965 1-403): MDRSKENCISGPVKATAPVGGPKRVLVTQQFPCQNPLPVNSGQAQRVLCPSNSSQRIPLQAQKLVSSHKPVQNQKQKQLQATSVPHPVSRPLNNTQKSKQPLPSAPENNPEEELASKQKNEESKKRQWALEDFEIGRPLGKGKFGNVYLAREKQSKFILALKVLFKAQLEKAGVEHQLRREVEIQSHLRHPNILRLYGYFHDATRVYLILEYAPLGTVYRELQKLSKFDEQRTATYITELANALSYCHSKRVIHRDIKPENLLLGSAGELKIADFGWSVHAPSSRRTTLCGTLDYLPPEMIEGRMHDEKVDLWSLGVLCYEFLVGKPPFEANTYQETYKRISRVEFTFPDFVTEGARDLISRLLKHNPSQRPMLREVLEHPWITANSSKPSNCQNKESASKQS
Assay: ADP-Glo kinase assay, Aurora A
Format: biochemical
Settings: Log[nM] 3.0; Set3
measurement-kind: Aurora A % Activity Set3 (%)

Brc1ccc(Nc2ncnc3[nH]ccc23)cc1 = 82
Nc1nc(Nc2cccc(Br)c2)c2cc[nH]c2n1 = 92
Clc1ccc(Nc2ncnc3[nH]ccc23)cc1 = 86
Cc1ccc(Nc2ncnc3[nH]ccc23)cc1 = 91
c1ccc(Oc2ccc(Nc3ncnc4[nH]ccc34)cc2)cc1 = 79
COc1ccc(Nc2ncnc3[nH]ccc23)cc1 = 84
FC(F)(F)c1cccc(Nc2ncnc3[nH]ccc23)c1 = 94
Brc1cccc(Nc2ncnc3[nH]ccc23)c1 = 69
Cc1ccccc1Nc1ncnc2[nH]ccc12 = 98
Clc1cccc(Nc2ncnc3[nH]ccc23)c1 = 84
Clc1ccccc1Nc1ncnc2[nH]ccc12 = 93
c1ccc(Cc2ccc(Nc3ncnc4[nH]ccc34)cc2)cc1 = 85
c1ccc(Nc2ncnc3[nH]ccc23)cc1 = 93
Fc1cc(Nc2ncnc3[nH]ccc23)ccc1Cl = 77
Clc1ccc(Nc2ncnc3[nH]ccc23)cc1Br = 93
Cc1cccc(Nc2ncnc3[nH]ccc23)c1 = 92
Clc1ccc(Nc2ncnc3[nH]ccc23)cc1Cl = 91

---

Target: EGFR (Homo sapiens)
Assay: ADP-Glo kinase assay, EGFR
Type: biochemical
Parameters: purchased BPS Bioscience (assay run externally by the vendor)
Conditions: Log[nM] 4.5; Set3
measurement-kind: EGFR % Activity Set3 (%)

Recorded results for 4 compounds are shown here.
c1ccc(Cc2ccc(Nc3ncnc4[nH]ccc34)cc2)cc1 [Compound 18] = 2
Fc1cc(Nc2ncnc3[nH]ccc23)ccc1Cl [Compound 3] = 0
Clc1ccccc1Nc1ncnc2[nH]ccc12 [Compound 14] = 3
Cc1ccc(Nc2ncnc3[nH]ccc23)cc1 [Compound 9] = 3

(1) Cc1ccccc1Nc1ncnc2[nH]ccc12 [Compound 15]
(2) Cc1cccc(Nc2ncnc3[nH]ccc23)c1 [Compound 12]
(3) Clc1ccc(Nc2ncnc3[nH]ccc23)cc1 [Compound 4]
(4) c1ccc(Nc2ncnc3[nH]ccc23)cc1 [Compound 1]
(5) COc1ccc(Nc2ncnc3[nH]ccc23)cc1 [Compound 6]
Incoming: Rank descending by EGFR % Activity Set3. Please respond by ranking the labels in the order requested.
Outgoing: 5, 1, 4, 3, 2
(5: 8%, 1: 4%, 4: 2%, 3: 1%, 2: 0%)

(I) c1ccc(Oc2ccc(Nc3ncnc4[nH]ccc34)cc2)cc1 [Compound 17]
(II) FC(F)(F)c1cccc(Nc2ncnc3[nH]ccc23)c1 [Compound 13]
(III) Brc1ccc(Nc2ncnc3[nH]ccc23)cc1 [Compound 10]
Incoming: Rank descending by EGFR % Activity Set3. Please respond by ranking the labels in the order requested.
Outgoing: I, III, II
(I: 5%, III: 1%, II: 0%)

(P) Brc1cccc(Nc2ncnc3[nH]ccc23)c1 [Compound 2]
(Q) Clc1ccc(Nc2ncnc3[nH]ccc23)cc1Br [Compound 7]
Incoming: Which entry shows the lesser value of EGFR % Activity Set3 here, P or Q ? # respond with the chosen item's label
Outgoing: P

---

Target: aurora A kinase (AURKA) (Homo sapiens, UniProt O14965)
Construct: purchased BPS Bioscience (assay run externally by the vendor)
Test: ADP-Glo kinase assay, Aurora A
Assay type: biochemical
Conditions: Log[nM] 1.5; Set3
measurement-kind: Aurora A % Activity Set3 (%)

Nc1nc(Nc2cccc(Br)c2)c2cc[nH]c2n1 = 105
FC(F)(F)c1cccc(Nc2ncnc3[nH]ccc23)c1 = 119
COc1ccc(Nc2ncnc3[nH]ccc23)cc1 = 110
Brc1ccc(Nc2ncnc3[nH]ccc23)cc1 = 95
Cc1cccc(Nc2ncnc3[nH]ccc23)c1 = 97
c1ccc(Nc2ncnc3[nH]ccc23)cc1 = 100
Clc1ccc(Nc2ncnc3[nH]ccc23)cc1Cl = 102
c1ccc(Oc2ccc(Nc3ncnc4[nH]ccc34)cc2)cc1 = 106
Fc1cc(Nc2ncnc3[nH]ccc23)ccc1Cl = 105
Cc1ccc(Nc2ncnc3[nH]ccc23)cc1 = 109
Clc1ccc(Nc2ncnc3[nH]ccc23)cc1 = 102
c1ccc(Cc2ccc(Nc3ncnc4[nH]ccc34)cc2)cc1 = 105
Clc1ccc(Nc2ncnc3[nH]ccc23)cc1Br = 103
Cc1ccccc1Nc1ncnc2[nH]ccc12 = 107
Brc1cccc(Nc2ncnc3[nH]ccc23)c1 = 101
CN[C@@H]1C[C@H]2O[C@@](C)([C@@H]1OC)n1c3ccccc3c3c4c(c5c6ccccc6n2c5c31)C(=O)NC4 [Staurosporine, staurosporine, reference compound] = 85
Clc1cccc(Nc2ncnc3[nH]ccc23)c1 = 96
Clc1ccccc1Nc1ncnc2[nH]ccc12 = 98

Recorded values, source paper PMC6009956.
